Biological target: Trypanothione reductase (Leishmania infantum, UniProt A4HSF7)
Sequence (A4HSF7 whole entry): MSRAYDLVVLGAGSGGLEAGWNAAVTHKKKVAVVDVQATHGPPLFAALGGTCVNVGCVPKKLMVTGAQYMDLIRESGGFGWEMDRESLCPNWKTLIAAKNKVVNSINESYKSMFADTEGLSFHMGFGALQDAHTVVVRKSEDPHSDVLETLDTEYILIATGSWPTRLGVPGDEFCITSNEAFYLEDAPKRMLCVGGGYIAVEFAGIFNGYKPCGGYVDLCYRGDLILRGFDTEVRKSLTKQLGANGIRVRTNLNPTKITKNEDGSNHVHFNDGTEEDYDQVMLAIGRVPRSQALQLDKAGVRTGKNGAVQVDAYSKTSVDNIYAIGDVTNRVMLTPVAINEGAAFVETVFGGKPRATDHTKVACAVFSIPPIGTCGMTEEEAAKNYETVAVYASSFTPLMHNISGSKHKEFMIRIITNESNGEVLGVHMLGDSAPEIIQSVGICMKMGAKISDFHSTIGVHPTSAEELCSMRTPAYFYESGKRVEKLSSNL
Test: Inhibition of dimerization of HIS/FLAG tagged Leishmania infantum trypanothione reductase incubated for 16 hrs in presence of dimerization buffer by ELISA
pIC50: −log10 of the molar value. Numbered stars: 1 amine (or outer) side, 2 acyl side, 3 side chain; on linkers, the order of the positions; unused ones are H or OH. Square brackets hold non-standard residues; d marks the D form. Peptide text beside a SMILES is read from it. X1 = O=C(CC[C@@H]1CCCN1[*:1])[*:2]; β3hQ = NC(=O)CC[C@H](N)CC(=O)O; β3hK = NCCCC[C@H](N)CC(=O)O; β3hS = N[C@@H](CO)CC(=O)O; Nle = CCCC[C@H](N)C(=O)O; β3hA = C[C@H](N)CC(=O)O

{"Compound": "CCCC[C@H](NC(=O)C[C@H](CCCCN)NC(=O)[C@H](CCCC)NC(=O)C[C@H](CO)NC(=O)C[C@@H](NC(=O)CNC(=O)[C@@H](NC(=O)C[C@H](CO)NC(=O)C[C@H](CCC(N)=O)NC(=O)[C@@H](NC(=O)[C@@H](NC(=O)C[C@H](CCCCN)NC(=O)C[C@@H]1CCCN1C(C)=O)[C@@H](C)CC)[C@@H](C)CC)C(C)C)[C@@H](C)CC)C(N)=O", "Target System": "Trypanothione reductase (Leishmania infantum, UniProt A4HSF7)", "pIC50": 4.81}
{"Compound": "CC[C@H](C)[C@H](CC(=O)N[C@H](C(=O)N[C@@H](CCC(N)=O)C(=O)N[C@@H](CO)C(=O)N[C@@H](CC(=O)NCC(=O)N[C@H](C(N)=O)[C@@H](C)CC)C(C)C)[C@@H](C)CC)NC(=O)[C@H](CCCCN)NC(=O)[C@@H]1CCCN1C(C)=O", "Target System": "Trypanothione reductase (Leishmania infantum, UniProt A4HSF7)", "pIC50": 4.28}
{"Compound": "CCCC[C@@H](CC(=O)N[C@@H](CCCCN)C(=O)N[C@@H](CCCC)C(N)=O)NC(=O)[C@H](CO)NC(=O)[C@@H](NC(=O)C[C@H](C)NC(=O)[C@@H](NC(=O)[C@H](CO)NC(=O)[C@H](CCC(N)=O)NC(=O)C[C@H](NC(=O)[C@@H](NC(=O)[C@H](CCCCN)NC(=O)C[C@@H]1CCCN1C(C)=O)[C@@H](C)CC)[C@@H](C)CC)C(C)C)[C@@H](C)CC", "Target System": "Trypanothione reductase (Leishmania infantum, UniProt A4HSF7)", "pIC50": 4.86}
{"Compound": "CCCC[C@H](NC(=O)C[C@H](CCCCN)NC(=O)[C@H](CCCC)NC(=O)C[C@H](CO)NC(=O)[C@@H](NC(=O)C[C@H](C)NC(=O)[C@@H](NC(=O)C[C@H](CO)NC(=O)C[C@H](CCC(N)=O)NC(=O)[C@@H](NC(=O)[C@@H](NC(=O)[C@H](CCCCN)NC(=O)CC[C@@H]1CCCN1C(C)=O)[C@@H](C)CC)[C@@H](C)CC)C(C)C)[C@@H](C)CC)C(N)=O (Ac-[X1]KII[β3hQ][β3hS]V[β3hA]I[β3hS][Nle][β3hK][Nle]-NH2)", "Target System": "Trypanothione reductase (Leishmania infantum, UniProt A4HSF7)", "pIC50": 4.89}
{"Compound": "CCCC[C@@H](CC(N)=O)NC(=O)[C@H](CCCCN)NC(=O)[C@H](CCCC)NC(=O)C[C@H](CO)NC(=O)[C@@H](NC(=O)CNC(=O)[C@@H](NC(=O)C[C@H](CO)NC(=O)[C@H](CCC(N)=O)NC(=O)[C@@H](NC(=O)C[C@H](NC(=O)[C@H](CCCCN)NC(=O)C[C@@H]1CCCN1C(C)=O)[C@@H](C)CC)[C@@H](C)CC)C(C)C)[C@@H](C)CC", "Target System": "Trypanothione reductase (Leishmania infantum, UniProt A4HSF7)", "pIC50": 4.66}
{"Compound": "CCCC[C@H](NC(=O)[C@H](CCCCN)NC(=O)[C@H](CCCC)NC(=O)[C@H](CO)NC(=O)[C@@H](NC(=O)CNC(=O)[C@@H](NC(=O)[C@H](CO)NC(=O)[C@H](CCC(N)=O)NC(=O)[C@@H](NC(=O)[C@@H](NC(=O)[C@H](CCCCN)NC(=O)[C@@H]1CCCN1C(C)=O)[C@@H](C)CC)[C@@H](C)CC)C(C)C)[C@@H](C)CC)C(N)=O", "Target System": "Trypanothione reductase (Leishmania infantum, UniProt A4HSF7)", "pIC50": 4.99}
{"Compound": "CC[C@H](C)[C@H](NC(=O)CNC(=O)[C@@H](NC(=O)[C@H](CO)NC(=O)[C@H](CCC(N)=O)NC(=O)[C@@H](NC(=O)[C@@H](NC(=O)[C@H](CCCCN)NC(=O)[C@@H]1CCCN1C(C)=O)[C@@H](C)CC)[C@@H](C)CC)C(C)C)C(N)=O", "Target System": "Trypanothione reductase (Leishmania infantum, UniProt A4HSF7)", "pIC50": 4.80}

* * *

Target: Proteinase K (Engyodontium album)
Sequence (P06873 whole entry): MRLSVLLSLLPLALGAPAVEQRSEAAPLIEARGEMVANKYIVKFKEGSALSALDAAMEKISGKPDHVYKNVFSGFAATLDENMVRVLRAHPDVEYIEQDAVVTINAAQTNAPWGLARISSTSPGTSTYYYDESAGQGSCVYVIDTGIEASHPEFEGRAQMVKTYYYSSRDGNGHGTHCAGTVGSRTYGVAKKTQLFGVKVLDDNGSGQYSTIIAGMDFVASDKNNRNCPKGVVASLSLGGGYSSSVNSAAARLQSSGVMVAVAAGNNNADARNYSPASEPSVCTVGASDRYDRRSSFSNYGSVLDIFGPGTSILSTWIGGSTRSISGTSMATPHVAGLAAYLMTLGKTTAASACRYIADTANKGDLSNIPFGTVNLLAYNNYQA
Assay: Stability assessed as Tritirachium album proteinase K-mediated compound degradation by measuring half life at 50 uM by HPLC method
Assay type: ADME
Details: parengyodontium album
Numbered stars: 1 amine (or outer) side, 2 acyl side, 3 side chain; on linkers, the order of the positions; unused ones are H or OH. Square brackets hold non-standard residues; d marks the D form. Peptide text beside a SMILES is read from it. X1 = O=C(CC[C@@H]1CCCN1[*:1])[*:2]; β3hQ = NC(=O)CC[C@H](N)CC(=O)O; β3hK = NCCCC[C@H](N)CC(=O)O; β3hS = N[C@@H](CO)CC(=O)O; Nle = CCCC[C@H](N)C(=O)O; β3hA = C[C@H](N)CC(=O)O
Items are presented alongside their recorded half-life at 50 µM.

{"Compound": "CCCC[C@H](NC(=O)C[C@H](CCCCN)NC(=O)[C@H](CCCC)NC(=O)C[C@H](CO)NC(=O)[C@@H](NC(=O)C[C@H](C)NC(=O)[C@@H](NC(=O)C[C@H](CO)NC(=O)C[C@H](CCC(N)=O)NC(=O)[C@@H](NC(=O)[C@@H](NC(=O)[C@H](CCCCN)NC(=O)CC[C@@H]1CCCN1C(C)=O)[C@@H](C)CC)[C@@H](C)CC)C(C)C)[C@@H](C)CC)C(N)=O (Ac-[X1]KII[β3hQ][β3hS]V[β3hA]I[β3hS][Nle][β3hK][Nle]-NH2)", "Scale Unit": "h", "Comparator": "<", "half-life at 50 µM": 0.25}
{"Compound": "CCCC[C@@H](CC(N)=O)NC(=O)[C@H](CCCCN)NC(=O)[C@H](CCCC)NC(=O)C[C@H](CO)NC(=O)[C@@H](NC(=O)CNC(=O)[C@@H](NC(=O)C[C@H](CO)NC(=O)[C@H](CCC(N)=O)NC(=O)[C@@H](NC(=O)C[C@H](NC(=O)[C@H](CCCCN)NC(=O)C[C@@H]1CCCN1C(C)=O)[C@@H](C)CC)[C@@H](C)CC)C(C)C)[C@@H](C)CC", "Scale Unit": "h", "Comparator": "=", "half-life at 50 µM": 8.62}
{"Compound": "CCCC[C@@H](CC(N)=O)NC(=O)[C@H](CCCCN)NC(=O)[C@H](CCCC)NC(=O)C[C@H](CO)NC(=O)C[C@H](NC(=O)CNC(=O)[C@@H](NC(=O)C[C@H](CO)NC(=O)[C@H](CCC(N)=O)NC(=O)[C@@H](NC(=O)[C@@H](NC(=O)C[C@H](CCCCN)NC(=O)C[C@@H]1CCCN1C(C)=O)[C@@H](C)CC)[C@@H](C)CC)C(C)C)[C@@H](C)CC", "Scale Unit": "h", "Comparator": "=", "half-life at 50 µM": 2.18}

* * *

Parameter: pIC50. Scope: all listed entries.
Target: Trypanothione reductase (Leishmania infantum, UniProt A4HSF7)
Experiment: Inhibition of oxidoreductase activity of recombinant Leishmania infantum trypanothione reductase pre-incubated for 10 mins before T[S]2 and NADPH addition
pIC50: −log10 of the molar value.

{"Smiles Code": "CC[C@H](C)[C@H](NC(=O)CNC(=O)[C@@H](NC(=O)[C@H](CO)NC(=O)[C@H](CCC(N)=O)NC(=O)[C@@H](NC(=O)[C@@H](NC(=O)[C@H](CCCCN)NC(=O)[C@@H]1CCCN1C(C)=O)[C@@H](C)CC)[C@@H](C)CC)C(C)C)C(N)=O", "Comparator": "=", "pIC50": 5.44}
{"Smiles Code": "CC[C@H](C)[C@H](CC(=O)N[C@@H](CCC(N)=O)C(=O)N[C@@H](CO)C(=O)N[C@@H](CC(=O)NCC(=O)N[C@H](C(N)=O)[C@@H](C)CC)C(C)C)NC(=O)[C@@H](NC(=O)[C@H](CCCCN)NC(=O)[C@@H]1CCCN1C(C)=O)[C@@H](C)CC", "Comparator": "<", "pIC50": 4.12}
{"Smiles Code": "CC[C@H](C)[C@H](NC(=O)CNC(=O)[C@@H](NC(=O)C[C@H](CO)NC(=O)[C@H](CCC(N)=O)NC(=O)[C@@H](NC(=O)C[C@@H](NC(=O)[C@H](CCCCN)NC(=O)[C@@H]1CCCN1C(C)=O)[C@@H](C)CC)[C@@H](C)CC)C(C)C)C(N)=O", "Comparator": "<", "pIC50": 4.12}
{"Smiles Code": "CCCC[C@H](NC(=O)[C@H](CCCCN)NC(=O)[C@H](CCCC)NC(=O)[C@H](CO)NC(=O)[C@@H](NC(=O)CNC(=O)C[C@H](NC(=O)[C@H](CO)NC(=O)[C@H](CCC(N)=O)NC(=O)[C@@H](NC(=O)C[C@H](NC(=O)[C@H](CCCCN)NC(=O)[C@@H]1CCCN1C(C)=O)[C@@H](C)CC)[C@@H](C)CC)C(C)C)[C@@H](C)CC)C(N)=O", "Comparator": "=", "pIC50": 5.06}
